molecular target: human HDAC-4 (Homo sapiens); construct: Flag; made in house; assay: histone deacetylase enzyme assay, HDAC-4; format: biochemical; settings: recombinant human enzyme, [3H]-acetylated histone substrate, 2 hours; read-out: Enzyme IC50 (μM) HDAC4
Sequence (P56524 whole entry): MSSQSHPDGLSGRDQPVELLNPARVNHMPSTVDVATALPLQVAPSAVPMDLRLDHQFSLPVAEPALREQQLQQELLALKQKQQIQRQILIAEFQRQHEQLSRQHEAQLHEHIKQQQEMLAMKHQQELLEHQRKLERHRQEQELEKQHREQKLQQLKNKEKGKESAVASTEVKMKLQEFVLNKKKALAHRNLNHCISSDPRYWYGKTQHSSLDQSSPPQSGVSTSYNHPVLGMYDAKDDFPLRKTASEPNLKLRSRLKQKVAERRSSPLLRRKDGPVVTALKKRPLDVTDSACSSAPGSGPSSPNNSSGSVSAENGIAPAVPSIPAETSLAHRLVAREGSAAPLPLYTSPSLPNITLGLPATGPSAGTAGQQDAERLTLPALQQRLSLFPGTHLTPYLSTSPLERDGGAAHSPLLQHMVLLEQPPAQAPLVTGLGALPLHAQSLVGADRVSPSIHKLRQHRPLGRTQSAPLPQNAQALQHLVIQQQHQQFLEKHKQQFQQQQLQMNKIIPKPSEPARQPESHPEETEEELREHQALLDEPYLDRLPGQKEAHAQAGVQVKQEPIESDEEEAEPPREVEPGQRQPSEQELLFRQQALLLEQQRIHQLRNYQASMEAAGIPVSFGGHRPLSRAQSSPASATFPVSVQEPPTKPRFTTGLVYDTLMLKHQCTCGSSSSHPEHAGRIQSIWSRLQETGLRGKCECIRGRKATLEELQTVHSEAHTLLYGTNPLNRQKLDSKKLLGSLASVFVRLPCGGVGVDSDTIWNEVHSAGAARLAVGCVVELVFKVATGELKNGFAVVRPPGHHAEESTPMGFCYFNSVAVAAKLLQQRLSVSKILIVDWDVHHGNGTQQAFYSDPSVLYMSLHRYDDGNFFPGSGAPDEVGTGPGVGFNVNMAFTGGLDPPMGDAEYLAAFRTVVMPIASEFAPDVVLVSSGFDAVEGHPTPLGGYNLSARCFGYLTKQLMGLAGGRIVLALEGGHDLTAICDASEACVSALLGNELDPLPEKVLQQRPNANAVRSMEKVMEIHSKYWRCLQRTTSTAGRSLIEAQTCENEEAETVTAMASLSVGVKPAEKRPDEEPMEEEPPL
measure: IC50 (µM)
Unit µM implied. Number only.

Query: What value of measured IC50 is listed for Nc1ccccc1NC(=O)/C=C/C#Cc1cccc(NS(=O)(=O)c2ccccc2)c1 [Compound 2] ?
Result: 35

---

target: human HDAC-1 (Homo sapiens); construct: made in house; host or cells: insect cells (baculovirus expression system); experiment: histone deacetylase enzyme assay, HDAC-1; assay type: biochemical; conditions: recombinant human enzyme, [3H]-acetylated histone substrate, 10 minutes; read-out: Enzyme IC50 (μM) HDAC1
Sequence (Q13547 whole entry): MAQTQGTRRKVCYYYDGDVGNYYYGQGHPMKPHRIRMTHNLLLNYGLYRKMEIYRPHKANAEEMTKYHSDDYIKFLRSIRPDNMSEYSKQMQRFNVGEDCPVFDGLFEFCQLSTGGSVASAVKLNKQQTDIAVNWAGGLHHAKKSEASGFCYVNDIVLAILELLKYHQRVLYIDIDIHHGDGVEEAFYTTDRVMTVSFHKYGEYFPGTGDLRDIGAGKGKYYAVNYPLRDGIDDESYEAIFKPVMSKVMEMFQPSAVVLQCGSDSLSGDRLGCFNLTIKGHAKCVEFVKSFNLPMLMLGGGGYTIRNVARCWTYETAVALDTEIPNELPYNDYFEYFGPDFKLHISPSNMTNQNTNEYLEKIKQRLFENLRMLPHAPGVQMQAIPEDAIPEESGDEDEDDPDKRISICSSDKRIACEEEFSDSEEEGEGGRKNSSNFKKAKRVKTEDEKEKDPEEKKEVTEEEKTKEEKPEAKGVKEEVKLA
measure: IC50 (µM)
Write the answer as a number in µM, unit excluded.

Query: Look up IC50 for this compound: Nc1ccccc1NC(=O)/C=C/C#Cc1cccc(NS(=O)(=O)c2ccccc2)c1
Result: 3
